# METHOD DESCRIPTION: yeast display, Sf9 membrane polyspecificity reagent, FACS + sequencing; frameworks hold sequencing errors
METRIC NAME: polyreactivity (PSR sort gate)

QVQLVESGGGLVQAGGSLRLSCAASGNIFVRYAMGWYRQAPGKERELVAAISSSGGRTYYADSVKGRFTISRDNAKNTVYLQMNSLKPEDTAVYYCADAQGNAHRDYWGQGTQVTVSS ... high polyreactivity
QVQLVESGGGFVQAGGSLRLSCAASGYTLRIYAMGWYRQAPGKERELVAAISRSGGRTFYADSVKGRFTISRDNAKNTVYLQMNSLKPEDSAVYYCAAVPRSYDTGRMDYWGQGTQVTVSS ... high polyreactivity

* * *

# METHOD DESCRIPTION: yeast display, Sf9 membrane polyspecificity reagent, FACS + sequencing; frameworks hold sequencing errors
METRIC NAME: polyreactivity (PSR sort gate)

Here's what some known entries look like.
QVQLVESGGGLVQAGGSLRLSCAASGLIFRRYTMGRYRQATGKERELVAAISRGGASTSYADSVKGRFTISRDNAKNTVYLQMNSLIPEDTAVYYCAATSPRSSRTYAYDYWGQGTQVTVSS ... high polyreactivity
QVQLVESGGGLVQAGGSLRLSCAASGRTITRNAMGWYRQAPGKERELVASINRGGITYYADSVKGRFTISRDNAKNTVYLQMNSLKPEDTAVYYCATRPWRSPWGYYDYWGQGTQVTVSS ... high polyreactivity
QVQLVESGGGLDQAGGSLRLSCAASGSIFGSYTLGGYRQAPGKERELVAVINWSGDRTYYADSVKGRFTISRDNAKNTVYLQMNSLKPEDTAVYYCAARERAAYSRIRYNYWGQGTQVTVSS ... high polyreactivity
QVQLVESGGGLVQAGGSLRLSCAASGFIFEWNGMGWYRQAPGKERELVAAITWSGGSTYYADSVKGRFTISRDNAKNTVYLQMISLKPEDTAVYYCAADFPEYYLPYDNWGQGTQVTVSS ... low polyreactivity
QVQLLESGAGLVQAGGSLRLIWAASGIIIGHYGMGWYRQAPGKERELVAVISSSGGRTYYADSVKGRFTISRDNAKNTVYLQMNSLKPEDTAVYYCNGGPQVRYWQGTYEYWGQGTQVTVSS ... high polyreactivity
QVQLVESGGGLVQAGGSLRLRCAASGSIFEEYAMGWSRPAPGKERELVAAITSRGGSTYYADSVKGRFTISRDNAKNNVYLQMNSLKPEDTAVYYCAAGVASLTTGSYDYWGQGTQVTVSS ... low polyreactivity

# polyreactivity (PSR sort gate) of QVQLVESGGGLVQAGGSLRLSCAASGSIFGRYPMGWYRQAPGKERELVAAISRRGGSTYYADSVKGRFTISRDNAKNTVYLQMNSLKPEDTAVYYCAARPFVKHDYWGQGTQVTVSS = high polyreactivity

# polyreactivity (PSR sort gate) of QVQLVESGGGLVQAGGSLRLSCAASGSIFRYYAMGWYRQAPGKERELVADITSSGGSTYYADSVKGRFTISRDNAKNTVYLQMNSLKPEDTAVYYCASLYWFYVYPFTEYDYWGQGTQVTVSS = low polyreactivity

# polyreactivity (PSR sort gate) of QVQLVESGGGLVQAGGSLRLSCAASGRIIQYNAMGWYRQAPGKERELVAAISWRSRRTYYADSVKGRFTISRDNAKNTVYIQMNSLKPEDTAVYYCAATSRTSWYGYWGQGTQVTVSS = high polyreactivity

# polyreactivity (PSR sort gate) of QVQLVESGVVLDQAGGILRLSCAASGFIFARYDMGWYRQAPGKERELVATISYTGGRTYYADSVKGRFTISRDNAKNTVYLQMNSLKPEDTAVYYCAAVVQSSEPVEYDYWGQGTQVTVSS = high polyreactivity

# polyreactivity (PSR sort gate) of QVQLVESGGGLVQAGGSLRISCAPSGIIFEYYALGCSRQAPGKEREVVAAIFSGGSTYYADSVKGRFTISRDNAKNTVYLLMNSLKAEDNAVYYCAAEYLAWGQGTQVTVSS = high polyreactivity
